assayed-system: Peroxisome proliferator-activated receptor gamma (Homo sapiens) (UniProt P37231)
Sequence (P37231 whole entry, looked up): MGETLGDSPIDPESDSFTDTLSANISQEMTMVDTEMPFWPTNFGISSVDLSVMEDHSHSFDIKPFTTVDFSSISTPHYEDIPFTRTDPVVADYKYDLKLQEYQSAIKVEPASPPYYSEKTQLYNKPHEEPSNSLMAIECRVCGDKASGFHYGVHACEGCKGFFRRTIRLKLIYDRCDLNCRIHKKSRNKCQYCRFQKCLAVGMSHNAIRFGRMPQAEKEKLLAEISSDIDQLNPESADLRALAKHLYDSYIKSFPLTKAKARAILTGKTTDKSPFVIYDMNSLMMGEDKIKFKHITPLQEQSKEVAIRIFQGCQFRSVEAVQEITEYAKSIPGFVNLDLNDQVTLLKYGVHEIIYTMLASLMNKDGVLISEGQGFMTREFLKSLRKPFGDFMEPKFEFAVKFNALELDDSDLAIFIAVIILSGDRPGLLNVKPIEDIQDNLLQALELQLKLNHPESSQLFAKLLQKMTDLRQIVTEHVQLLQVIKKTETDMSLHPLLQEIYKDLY
test-method-notes: NVS_NR_hPPARg: NovaScreen (NVS) Nuclear Receptor Binding Assay for human Peroxisome Proliferator-activated Receptor gamma (PPARg) (AID 2283370)
Inconclusive results are not listed. Activity calls are given as the source filed them. The calls were made as follows: active = hit-call score of the fitted dose curve at least 0.9, where 1 is the maximum; inconclusive = response in the unintended direction; inactive = score below 0.9.
// classify into yes (active), no (inactive)

Per the assay record, what outcome was assigned to CCCCCCC(C)(C)S ?
no

Per the assay record, what outcome was assigned to CC(C)NCC(O)COc1ccc(CC(N)=O)cc1 (stereo not drawn) ?
no

Per the assay record, what outcome was assigned to CCCC(=O)OC(C)(C)Cc1ccccc1 ?
yes

Per the assay record, what outcome was assigned to CCCCCCCCCCCC(=O)OCC(O)CO (stereo not drawn) ?
no

Per the assay record, what outcome was assigned to Oc1ccc2cc(SSc3ccc4cc(O)ccc4c3)ccc2c1 ?
no

Per the assay record, what outcome was assigned to O=CCc1ccccc1 ?
no

Per the assay record, what outcome was assigned to C=C[Si]1(C)O[Si](C)(C=C)O[Si](C)(C=C)O[Si](C)(C=C)O1 (stereo not drawn) ?
no

Per the assay record, what outcome was assigned to Nc1ccc2cc(S(=O)(=O)O)cc(O)c2c1N=Nc1ccccc1C(F)(F)F ?
yes

Per the assay record, what outcome was assigned to C=C1C[C@]23C[C@@]1(O)CC[C@H]2[C@@]12C=C[C@H](O)[C@@](C)(C(=O)O1)[C@H]2[C@@H]3C(=O)O ?
no

Per the assay record, what outcome was assigned to O=C(Nc1ccc2c(O)c(N=Nc3ccc(N=Nc4ccc(S(=O)(=O)O)cc4)cc3)c(S(=O)(=O)O)cc2c1)c1ccccc1 ?
no

Per the assay record, what outcome was assigned to CCc1cc(Cc2cc(CC)cc(C(C)(C)C)c2O)c(O)c(C(C)(C)C)c1 ?
no

Per the assay record, what outcome was assigned to CC(C)CCCCCCCCCCCCCCC(=O)O ?
no

Per the assay record, what outcome was assigned to CCC(=O)O[C@@H]1C[C@H]2CC[C@]1(C)C2(C)C ?
no

---

Consider the following molecules; for each one, report its AC50.
assayed-system: chimpanzee Androgen Receptor (AR), AR (gene 747460)
test-method-notes: NVS_NR_cAR: NovaScreen (NVS) Nuclear Receptor Binding Assay for chimpanzee Androgen Receptor (AR) (AID 2283346);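 also: radioligand displacement from AR measured by scintillation counting in a cell-free assay; a loss of bound radioligand signal versus DMSO counts as binding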
Inconclusive results are not listed. Active and inactive are the calls of the source. Rule for the calls: active = hit-call score of the fitted dose curve at least 0.9, where 1 is the maximum; inconclusive = response in the unintended direction; inactive = score below 0.9.

Measured AC50, CCOc1ccc(N=Nc2ccc(C=Cc3ccc(N=Nc4ccc(OCC)cc4)cc3S(=O)(=O)O)c(S(=O)(=O)O)c2)cc1 : 17.7 µM (active)

Measured AC50, Oc1ccc2cc(SSc3ccc4cc(O)ccc4c3)ccc2c1 : 31.9 µM (active)

Measured AC50, O=C(Nc1ccc2c(O)c(N=Nc3ccc(N=Nc4ccc(S(=O)(=O)O)cc4)cc3)c(S(=O)(=O)O)cc2c1)c1ccccc1 : 40.6 µM (active)

Measured AC50, BrCc1cccc(Oc2ccccc2)c1 : 25 µM (active)

---

test-method-notes: CEETOX_H295R_11DCORT: CeeTox H295R High-throughput Steroidogenesis Assay for 11-Deoxycortisol (11DCORT) (AID 2283432)
recorded-conditions: actives raise or lower the signal
Calls of active or inactive are those of the source. How the source made its calls: active means hit-call score of the fitted dose curve at least 0.9, where 1 is the maximum; inactive means score below 0.9.
recorded-endpoint: outcome

CCc1cc(C(C)(C)C)c(O)c(C(C)(C)C)c1; inactive
Cc1cc(=O)oc2cc(N(C)C)ccc12; inactive
CC(C)Nc1nc(N)nc(Cl)n1; inactive
